Would you kindly list Avg % Deletion for each of these sequences?
# Tested on: TTR
# assay.comment: TTR editing in primary cyno hepatocytes electroporated with Spy Cas9 protein and dgRNAs (Tables 10, 11)
# Assay type: cell-based, cynomolgus monkey
# details: Table 10; primary cyno hepatocytes electroporated with Spy Cas9 protein (RNP) and dgRNAs
The figure you give is taken to be in %; do not add the unit.

Incoming: Please give measured Avg % Deletion of the following entry: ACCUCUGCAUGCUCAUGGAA (tested as dual guide RNA, chemistry not given here) [CR003371]
Outgoing: 0.14

Incoming: Please give measured Avg % Deletion of the following entry: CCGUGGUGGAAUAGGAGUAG (tested as dual guide RNA, chemistry not given here) [CR003386]
Outgoing: 2.03

Incoming: Please give measured Avg % Deletion of the following entry: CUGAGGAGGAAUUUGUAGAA (tested as dual guide RNA, chemistry not given here) [CR003364]
Outgoing: 5.35

Incoming: Please give measured Avg % Deletion of the following entry: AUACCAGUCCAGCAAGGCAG (tested as dual guide RNA, chemistry not given here) [CR003338]
Outgoing: 0.05

Incoming: Please give measured Avg % Deletion of the following entry: ACGUGUCUUCUCUACACCCA (tested as dual guide RNA, chemistry not given here) [CR005302]
Outgoing: 0.08

Incoming: Please give measured Avg % Deletion of the following entry: GUCACAGAAACACUCACCGU (tested as dual guide RNA, chemistry not given here) [CR005301]
Outgoing: 0.42

Incoming: Please give measured Avg % Deletion of the following entry: AUGCAGCUCUCCAGACUCAC (tested as dual guide RNA, chemistry not given here) [CR003358]
Outgoing: 1.46
